REPORTED PROPERTY: IC50

Q. Under PI3K (p120g) (Homo sapiens): IC50 value of Cc1cc(CNc2cc(C)nc3c(-c4ccc5c(c4)c(C)nn5C)c(C)nn23)ccn1 ?
A. > 1000 nM

* * *

Target: PI3KA (p110a/p85a) (Homo sapiens)
Sequence (P42336 whole entry): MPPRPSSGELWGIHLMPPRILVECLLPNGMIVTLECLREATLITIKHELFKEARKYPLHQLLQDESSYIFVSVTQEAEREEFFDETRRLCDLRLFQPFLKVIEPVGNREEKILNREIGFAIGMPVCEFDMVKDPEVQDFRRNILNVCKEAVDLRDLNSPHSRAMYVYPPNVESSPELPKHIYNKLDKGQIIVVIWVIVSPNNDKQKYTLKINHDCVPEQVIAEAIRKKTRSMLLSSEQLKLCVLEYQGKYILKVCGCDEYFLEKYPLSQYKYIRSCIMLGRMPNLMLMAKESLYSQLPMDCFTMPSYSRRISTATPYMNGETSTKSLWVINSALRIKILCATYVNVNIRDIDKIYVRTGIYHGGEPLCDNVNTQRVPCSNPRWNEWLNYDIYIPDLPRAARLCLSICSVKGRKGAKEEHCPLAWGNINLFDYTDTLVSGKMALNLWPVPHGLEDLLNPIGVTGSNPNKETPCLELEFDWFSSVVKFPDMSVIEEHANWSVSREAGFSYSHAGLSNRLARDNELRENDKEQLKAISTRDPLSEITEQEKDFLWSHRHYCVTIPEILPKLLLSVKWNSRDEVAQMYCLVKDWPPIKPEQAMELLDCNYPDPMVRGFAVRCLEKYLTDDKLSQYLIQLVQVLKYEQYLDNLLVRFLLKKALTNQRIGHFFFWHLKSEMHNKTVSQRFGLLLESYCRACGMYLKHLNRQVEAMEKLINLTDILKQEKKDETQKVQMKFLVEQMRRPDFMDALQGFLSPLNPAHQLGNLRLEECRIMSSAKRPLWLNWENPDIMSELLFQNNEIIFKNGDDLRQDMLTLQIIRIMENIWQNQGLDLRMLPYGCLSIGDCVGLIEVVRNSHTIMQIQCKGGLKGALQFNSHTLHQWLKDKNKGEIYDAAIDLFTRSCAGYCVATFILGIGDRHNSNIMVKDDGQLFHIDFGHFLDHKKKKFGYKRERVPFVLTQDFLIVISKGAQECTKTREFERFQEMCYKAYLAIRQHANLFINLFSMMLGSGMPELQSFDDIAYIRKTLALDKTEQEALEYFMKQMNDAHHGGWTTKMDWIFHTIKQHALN
Sequence (P27986 whole entry partner): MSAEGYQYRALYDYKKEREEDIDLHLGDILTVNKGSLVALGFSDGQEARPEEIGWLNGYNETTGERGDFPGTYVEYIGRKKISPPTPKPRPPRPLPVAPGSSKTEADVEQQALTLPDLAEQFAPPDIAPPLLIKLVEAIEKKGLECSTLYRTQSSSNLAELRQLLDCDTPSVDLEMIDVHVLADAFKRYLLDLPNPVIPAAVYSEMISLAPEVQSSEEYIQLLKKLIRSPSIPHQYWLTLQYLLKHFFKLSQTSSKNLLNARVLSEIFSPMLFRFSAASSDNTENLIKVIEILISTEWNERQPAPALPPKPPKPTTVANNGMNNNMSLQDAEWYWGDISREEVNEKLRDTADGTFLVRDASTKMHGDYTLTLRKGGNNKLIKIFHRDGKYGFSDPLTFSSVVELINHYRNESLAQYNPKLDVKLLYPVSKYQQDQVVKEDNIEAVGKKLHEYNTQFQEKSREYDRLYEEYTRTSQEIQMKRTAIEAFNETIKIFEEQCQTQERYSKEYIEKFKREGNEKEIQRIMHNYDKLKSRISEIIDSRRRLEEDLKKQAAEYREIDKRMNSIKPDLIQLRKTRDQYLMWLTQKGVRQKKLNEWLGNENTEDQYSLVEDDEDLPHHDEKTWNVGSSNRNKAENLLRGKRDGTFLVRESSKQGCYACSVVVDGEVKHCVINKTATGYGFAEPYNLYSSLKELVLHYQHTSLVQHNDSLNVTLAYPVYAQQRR
Assay: PI3 kinase inhibition, HTRF assay
REPORTED PROPERTY: IC50 (µM)
Report the value in µM with no unit label.

Q. What IC50 value was documented for this compound, Cc1cc(CNc2cc(C)nc3c(-c4ccc5c(c4)c(C)nn5C)c(C)nn23)ccn1 ?
A. 3.4

* * *

REPORTED PROPERTY: IC50 (nM)
Report the value in nM with no unit label.

Q. Under PI4KB (Homo sapiens, UniProt Q9UBF8): IC50 value of Cc1cc(CNc2cc(C)nc3c(-c4ccc5c(c4)c(C)nn5C)c(C)nn23)ccn1 ?
A. 0.6
